assayed.target: T1, human G-CSF receptor (human, UniProt Q99062 25-836)
T1 sequence (looked up): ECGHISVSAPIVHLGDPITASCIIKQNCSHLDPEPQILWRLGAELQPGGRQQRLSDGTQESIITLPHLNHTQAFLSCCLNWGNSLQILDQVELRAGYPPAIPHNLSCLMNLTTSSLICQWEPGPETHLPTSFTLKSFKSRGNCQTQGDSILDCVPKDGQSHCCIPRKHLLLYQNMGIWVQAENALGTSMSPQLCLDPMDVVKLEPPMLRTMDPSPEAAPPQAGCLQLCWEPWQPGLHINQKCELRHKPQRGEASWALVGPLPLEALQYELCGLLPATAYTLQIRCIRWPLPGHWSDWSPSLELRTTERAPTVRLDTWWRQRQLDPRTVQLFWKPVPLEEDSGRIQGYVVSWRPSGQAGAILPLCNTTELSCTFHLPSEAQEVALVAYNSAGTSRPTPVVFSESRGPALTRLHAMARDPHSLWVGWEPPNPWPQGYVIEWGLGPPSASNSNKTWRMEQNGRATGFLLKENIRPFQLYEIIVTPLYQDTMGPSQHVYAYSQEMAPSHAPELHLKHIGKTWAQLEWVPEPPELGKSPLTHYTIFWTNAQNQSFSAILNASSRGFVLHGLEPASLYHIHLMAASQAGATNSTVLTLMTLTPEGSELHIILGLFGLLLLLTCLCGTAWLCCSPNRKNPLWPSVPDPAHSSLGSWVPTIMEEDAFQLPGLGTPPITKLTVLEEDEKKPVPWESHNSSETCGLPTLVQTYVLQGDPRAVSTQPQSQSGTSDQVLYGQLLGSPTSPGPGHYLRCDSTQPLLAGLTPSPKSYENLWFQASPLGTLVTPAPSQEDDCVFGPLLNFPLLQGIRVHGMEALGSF
assay.protocol: cell-based or functional assay
quantity.name: EC50 (% of hG-CSF) conjugated to SPA-PEG 5000

- binder: "G-CSF variant K16/23R conjugated to SPA-PEG 5000 (ligand, SPA-PEG 5000 conjugated to the available PEGylation sites) TPLGPASSLPQSFLLRCLEQVRRIQGDGAALQEKLCATYKLCHPEELVLLGHSLGIPWAPLSSCPSQALQLAGCLSQLHSGLFLYQGLLQALEGISPELGPTLDTLQLDVADFATTIWQQMEELGMAPALQPTQGAMPAFASAFQRRAGGVLVASHLQSFLEVSYRVLRHLAQP"
  reported.result: "1 % of hG-CSF"
- binder: "G-CSF variant K16/34/40R S155K conjugated to SPA-PEG 5000 (ligand, SPA-PEG 5000 conjugated to the available PEGylation sites) TPLGPASSLPQSFLLRCLEQVRKIQGDGAALQERLCATYRLCHPEELVLLGHSLGIPWAPLSSCPSQALQLAGCLSQLHSGLFLYQGLLQALEGISPELGPTLDTLQLDVADFATTIWQQMEELGMAPALQPTQGAMPAFASAFQRRAGGVLVAKHLQSFLEVSYRVLRHLAQP"
  reported.result: "1 % of hG-CSF"
- binder: "G-CSF variant 16Q conjugated to SPA-PEG 5000 (ligand, SPA-PEG 5000 conjugated to the available PEGylation sites) TPLGPASSLPQSFLLQCLEQVRKIQGDGAALQEKLCATYKLCHPEELVLLGHSLGIPWAPLSSCPSQALQLAGCLSQLHSGLFLYQGLLQALEGISPELGPTLDTLQLDVADFATTIWQQMEELGMAPALQPTQGAMPAFASAFQRRAGGVLVASHLQSFLEVSYRVLRHLAQP"
  reported.result: "1 % of hG-CSF"
- binder: "G-CSF variant K16/34/40R Q70K Q90K T105K conjugated to SPA-PEG 5000 (ligand, SPA-PEG 5000 conjugated to the available PEGylation sites) TPLGPASSLPQSFLLRCLEQVRKIQGDGAALQERLCATYRLCHPEELVLLGHSLGIPWAPLSSCPSQALKLAGCLSQLHSGLFLYQGLLKALEGISPELGPTLDKLQLDVADFATTIWQQMEELGMAPALQPTQGAMPAFASAFQRRAGGVLVASHLQSFLEVSYRVLRHLAQP"
  reported.result: "4 % of hG-CSF"
- binder: "G-CSF variant K16/34/40R Q120K conjugated to SPA-PEG 5000 (ligand, SPA-PEG 5000 conjugated to the available PEGylation sites) TPLGPASSLPQSFLLRCLEQVRKIQGDGAALQERLCATYRLCHPEELVLLGHSLGIPWAPLSSCPSQALQLAGCLSQLHSGLFLYQGLLQALEGISPELGPTLDTLQLDVADFATTIWQKMEELGMAPALQPTQGAMPAFASAFQRRAGGVLVASHLQSFLEVSYRVLRHLAQP"
  reported.result: "20 % of hG-CSF"

Now consider a different binder.
Endpoint output: EC50 (% of hG-CSF) conjugated to SPA-PEG 5000 of G-CSF variant K16/34/40R Q90K Q120K S142K conjugated to SPA-PEG 5000 (ligand, SPA-PEG 5000 conjugated to the available PEGylation sites) TPLGPASSLPQSFLLRCLEQVRKIQGDGAALQERLCATYRLCHPEELVLLGHSLGIPWAPLSSCPSQALQLAGCLSQLHSGLFLYQGLLKALEGISPELGPTLDTLQLDVADFATTIWQKMEELGMAPALQPTQGAMPAFAKAFQRRAGGVLVASHLQSFLEVSYRVLRHLAQP . Value?
1 % of hG-CSF

FYI, the data here is from patent US20030118612A1.
